- Test system: OVCAR-3
- Assay Procedure: NCI tumour cell line growth inhibition, 48 h
The source made the active and inactive calls. No stated cut-off is given here; in the data, active = GI50 up to about 1.1 µM and inactive = higher.
Tick one outcome: active, inactive

For this compound, state the assay outcome: CCO[C@@H]1OC(=O)[C@@](C)(C(C)=O)[C@@H]1C inactive

In this assay, the call recorded for COc1cc(OC)c2c(=O)c(O)c(-c3ccc(OC)c(OC)c3)oc2c1 was what? inactive

Assay outcome for Cc1csc2nc3c(cnn3C)c(=S)n12 : what was it? inactive

What outcome does the record of this test show for C=CCc1cccc2cc(C(=O)NCc3ccccc3)c(=N)oc12 ? inactive

Outcome logged for CSc1ccc(/C=C2\CN(C)C/C(=C\c3ccc(SC)cc3)C2=O)cc1 in this assay: inactive

Now consider the entry below.
What did the test return for COc1cc(C2c3cc4c(cc3OC(C)(N3CCCC3)C2C)OCO4)cc(OC)c1OC (stereo unspecified) ? active
